# Test system: SNB-75 CNS
# measurement description: NCI-60 one-dose screen, 48 h (100 = growth as untreated, 0 = no growth, -100 = all killed)
# condition label: 10 µM unless noted
The panel holds about 83,000 compounds, 20% with a hit somewhere; the sample as a whole holds those more often.
So basically, the class depends on measured growth, and the ranges are low bracket (below 60%), middle bracket (60% to below 80%), high bracket (80% or more)

[[record]]
molecule = "C#CCC(C)(O)/C=C/C1=C(C)CCCC1(C)C (centres undefined)"
study_target = "SNB-75 CNS"
class_assignment = "high bracket"

[[record]]
molecule = "Fc1ccc(Nc2nc(Nc3ccc(-c4nc5ccccc5[nH]4)cc3)nc(N3CCCC3)n2)cc1"
study_target = "SNB-75 CNS"
class_assignment = "middle bracket"

[[record]]
molecule = "O=C1NC(c2ccc(Cl)c(Cl)c2)=C/C1=C\\c1ccccc1"
study_target = "SNB-75 CNS"
class_assignment = "middle bracket"

[[record]]
molecule = "CCOc1ccc(NC(=O)c2ccccc2-c2ccccc2C(=O)O)cc1"
study_target = "SNB-75 CNS"
class_assignment = "high bracket"

[[record]]
molecule = "Cn1cc(-c2csc(-c3c[nH]c4ccccc34)n2)c2cccnc21"
study_target = "SNB-75 CNS"
class_assignment = "low bracket"

[[record]]
molecule = "Brc1ccc(Cn2nnnc2-c2ccn(-c3ccccc3)n2)cc1"
study_target = "SNB-75 CNS"
class_assignment = "high bracket"

[[record]]
molecule = "O=C(NC1=CC(=O)c2ccccc2C1=O)c1ccccc1"
study_target = "SNB-75 CNS"
class_assignment = "low bracket"

[[record]]
molecule = "Cc1ccc(-c2nc([P+](c3ccccc3)(c3ccccc3)c3ccccc3)c(N3C[C@H]4C[C@H](C3)c3cccc(=O)n3C4)o2)cc1"
study_target = "SNB-75 CNS"
class_assignment = "middle bracket"

[[record]]
molecule = "Cc1ccc(N(CC(=O)Nc2ccc(S(=O)(=O)N3CCC(N4CCCC4)CC3)cc2)S(=O)(=O)c2ccc(Cl)cc2)cc1"
study_target = "SNB-75 CNS"
class_assignment = "middle bracket"

[[record]]
molecule = "COc1cccc(NC(=O)c2sc3nc4c(cc3c2N)C(=O)CCC4)c1"
study_target = "SNB-75 CNS"
class_assignment = "low bracket"

[[record]]
molecule = "Cc1cc(C)n(Cc2cc(C(C)(C)C)cc(C(C)(C)C)c2)c(=O)c1C#N"
study_target = "SNB-75 CNS"
class_assignment = "high bracket"

[[record]]
molecule = "CC(=O)OCCCCCCn1c2ccccc2c2c3c(c4c5ccccc5n(C)c4c21)C(=O)N(O)C3=O"
study_target = "SNB-75 CNS"
class_assignment = "high bracket"

[[record]]
molecule = "CC(=O)N1N=C(c2ccc(C)cc2)CC1c1ccc(Oc2ccc(Br)cc2)cc1 (centres undefined)"
study_target = "SNB-75 CNS"
class_assignment = "middle bracket"

[[record]]
molecule = "Nc1ccccc1NC(=O)c1ccc(CN2CCC/C(=C\\c3ccccn3)C2=O)cc1"
study_target = "SNB-75 CNS"
class_assignment = "low bracket"


---

# Tested on: OVCAR-3 ovarian
# measurement description: NCI-60 one-dose screen, 48 h (100 = growth as untreated, 0 = no growth, -100 = all killed)
# condition label: 10 µM unless noted
The panel holds about 83,000 compounds, 20% with a hit somewhere; the sample as a whole holds those more often.
measured endpoint: growth (%)

[[record]]
compound = "CCC(c1ccc(OC)cc1)C(CC)c1ccc(O)c(CN2CCCCC2)c1 (stereo not given)"
measured_endpoint = "growth"
units_symbol = "%"
measurement = 73.9

[[record]]
compound = "COC(=O)C(N)CSC(c1ccccc1)(c1ccccc1)c1ccccc1 (stereo not given)"
measured_endpoint = "growth"
units_symbol = "%"
measurement = 20.7

[[record]]
compound = "CN(C)c1ccc(C(=O)c2ccc(N(C)C)c(N)c2)cc1N"
measured_endpoint = "growth"
units_symbol = "%"
measurement = -31

[[record]]
compound = "COc1ccc2[nH]c(-c3ccc(Cl)cc3)cc(=O)c2c1"
measured_endpoint = "growth"
units_symbol = "%"
measurement = 106

[[record]]
compound = "CC1(C)C(=O)/C(=C\\c2cccnc2)C[C@]2(C)[C@H]3CC[C@@H]4[C@@H](C(=O)/C=C/c5ccncc5)CC[C@@]4(C)[C@]3(C)CC[C@@H]12"
measured_endpoint = "growth"
units_symbol = "%"
measurement = -48.6


---

# Tested on: KM12 colon
# measurement description: NCI-60 one-dose screen, 48 h (100 = growth as untreated, 0 = no growth, -100 = all killed)
# condition label: 10 µM unless noted
Compounds without any hit were thinned out: in the full panel of roughly 83,000, 20% have a hit.
Rule: class 1 for growth not less than 60%, class 0 for anything less.

[[record]]
compound = "N#CC1c2ccccc2-c2ccccc2N1C(=O)c1ccccc1 (stereo not given)"
class_assignment = "class 0"

[[record]]
compound = "O=C1CCN2C(=O)Nc3ccccc3C2C1 (stereo not given)"
class_assignment = "class 1"

[[record]]
compound = "COc1cc2nc(Cl)nc(Nc3cccc(C(=O)/C=C/c4ccccc4)c3)c2cc1OC"
class_assignment = "class 0"

[[record]]
compound = "Cc1ccc(Sc2sc(-c3ccccc3)nc2[P+](c2ccccc2)(c2ccccc2)c2ccccc2)cc1"
class_assignment = "class 0"

[[record]]
compound = "CCCCC[C@H]1C/C=C2/C(=O)C(Cl)=C[C@@H]2C/C=C\\CCCC(=O)O[C@@H](CCCCC)C/C=C2/C(=O)C(Cl)=C[C@@H]2C/C=C\\CCCC(=O)O1"
class_assignment = "class 0"

[[record]]
compound = "O=[N+]([O-])c1cc(S(=O)(=O)c2ccc(F)c([N+](=O)[O-])c2)ccc1F"
class_assignment = "class 1"

[[record]]
compound = "NC1=C(C/C(N)=N\\O)C(c2ccccc2Cl)c2c(ccc3ccccc23)O1 (stereo not given)"
class_assignment = "class 1"

[[record]]
compound = "O=C1c2ccccc2C(=Cc2ccccc2)c2ccccc21"
class_assignment = "class 0"

[[record]]
compound = "Cc1cc(N(CCCNc2ccnc3cc(Cl)ccc23)Cc2ccco2)nc(N2CCOCC2)n1"
class_assignment = "class 1"

[[record]]
compound = "O=C1OC(c2ccc(Cl)c(Cl)c2)=C/C1=C/c1cccc([N+](=O)[O-])c1"
class_assignment = "class 1"

[[record]]
compound = "Clc1ccccc1-c1nc(Nc2nc3ccccc3s2)nc(C(Cl)(Cl)Cl)n1"
class_assignment = "class 0"

[[record]]
compound = "CCc1ccc(-c2ccc(Nc3ccccc3)nn2)cc1S(N)(=O)=O"
class_assignment = "class 0"

[[record]]
compound = "CCc1cccc(CC)c1NC(=O)c1sc2nc3c(cc2c1N)CCCC3"
class_assignment = "class 1"

[[record]]
compound = "COc1cccc2c1C(=O)c1c(O)c3c(c(O)c1C2=O)C[C@@](O)(C(=O)CO)C[C@@H]3OC1C[C@H](N)[C@H](O)[C@H](C)O1 (stereo not given in full)"
class_assignment = "class 0"

[[record]]
compound = "N#C/C(=C\\c1ccc(-c2ccccc2)o1)c1nc(-c2ccco2)cs1"
class_assignment = "class 0"

[[record]]
compound = "CCCC(=O)N1CCCCC1CC (stereo not given)"
class_assignment = "class 1"

[[record]]
compound = "O=P(O)(c1ccccc1)c1ccccc1I"
class_assignment = "class 1"


---

# Tested on: HS 578T breast
# measurement description: NCI-60 one-dose screen, 48 h
# condition label: 10 µM unless noted
About 83,000 compounds went through this panel and 20% of them were active in at least one assay; those are over-represented in the sample as a whole. Calls of active or inactive are those of the source. Rule for the calls: active = growth percent below 10; inactive = the rest.
Possible outcomes: 1.0 for active, 0.0 for inactive

[[record]]
compound = "N=C(N)N=Nc1ccc(O)cc1"
class_assignment = 0.0

[[record]]
compound = "C/C(=N\\Nc1cc(C)c2cc(C)ccc2n1)c1ccccn1"
class_assignment = 0.0

[[record]]
compound = "c1cnc2[nH]cc(-c3csc(-c4cn(CCCN5CCCCC5)c5ccccc45)n3)c2c1"
class_assignment = 0.0

[[record]]
compound = "O=C(CCCCCn1c2ccccc2c2c3c(c4c5ccccc5[nH]c4c21)C(=O)N(O)C3=O)N1CCOCC1"
class_assignment = 0.0

[[record]]
compound = "NS(=O)(=O)c1ccc(CCNC(=O)/C=C/c2ccc(Cl)cc2)cc1"
class_assignment = 0.0

[[record]]
compound = "N#CC1C(=N)Cc2ccccc2-c2ccccc21 (centres undefined)"
class_assignment = 0.0

[[record]]
compound = "COc1cc(/C=N/NC(=S)NNC(=S)NC2CCCCC2)cc(OC)c1OC"
class_assignment = 0.0

[[record]]
compound = "NCCn1cc(-c2nc(-c3c[nH]c4ncccc34)cs2)c2cc(Br)ccc21"
class_assignment = 0.0

[[record]]
compound = "O=c1[nH]c2c3ccncc3cc(-c3cccc(Cl)c3)c2c2cnccc12"
class_assignment = 1.0

[[record]]
compound = "CCN1CCN(C(=O)[C@]23CCC(C)(C)C[C@@H]2C2=CC[C@@H]4[C@@]5(C)C/C(=C/c6ccncc6)C(=O)C(C)(C)[C@@H]5CC[C@@]4(C)[C@]2(C)CC3)CC1"
class_assignment = 1.0

[[record]]
compound = "COc1ccc2c(c1)c(-c1nc(-c3c[nH]c4ncccc34)cs1)cn2C"
class_assignment = 0.0

[[record]]
compound = "Cc1cc(Nc2ccc(F)cc2)nc(N2CCN(c3ccnc4cc(Cl)ccc34)CC2)n1"
class_assignment = 0.0

[[record]]
compound = "Cc1cccc2c1NC(=O)[C@@]21[C@H](C(=O)c2ccccc2)[C@]2(C(=O)Nc3ccccc32)[C@H]2CCCN21"
class_assignment = 0.0

[[record]]
compound = "C=C(C)[C@@H]1CC[C@]2(/C=N/Nc3ccncc3)CC[C@]3(C)[C@H](CC[C@@H]4[C@@]5(C)CCCNC(C)(C)[C@@H]5CC[C@]43C)[C@@H]12"
class_assignment = 0.0

[[record]]
compound = "C=C1C(=O)O[C@H]2[C@H]1CC/C(COC(=O)NCc1c[nH]c3ccccc13)=C\\CC[C@@]1(C)O[C@@H]21"
class_assignment = 0.0

[[record]]
compound = "CCC1C(=O)COC1=O (centres undefined)"
class_assignment = 0.0

[[record]]
compound = "CCCCn1c(-c2ccc(O)cc2)cn2c3c(=O)[nH]c(=O)n(C)c3nc12"
class_assignment = 0.0

[[record]]
compound = "CN(C)c1ccc(C(=O)c2ccc(N(C)C)c(N)c2)cc1N"
class_assignment = 1.0

[[record]]
compound = "O=C1NC(=Nc2ccc(S(=O)(=O)Nc3nccs3)cc2)S/C1=C\\c1coc2ccccc2c1=O"
class_assignment = 0.0

